B1: glmS ribozyme (parent)
chain: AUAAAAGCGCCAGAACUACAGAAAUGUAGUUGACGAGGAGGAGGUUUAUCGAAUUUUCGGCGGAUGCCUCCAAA

# Variants of: B1
# Assay Procedure: self-cleavage kobs at 40 uM GlcN6P; higher = faster cleavage; RNA array
# Test Context: with glucosamine-6-phosphate
Fewer inactive variants are shown than the library holds.
Reported values of self-cleavage kobs at 40 uM GlcN6P for individual entries
Give just the numeric value; s⁻¹ need not be written.

A15G A42G C68U : 0.000393
A42G C71A : 0.000338
C50G G59U C68G : 6.82e-05
C16G A53G C67A : 2.96e-05
U30G U45A C71U : 0.000183

Query variant follows.
Quick one: self-cleavage kobs at 40 uM GlcN6P for G40C C67A C71A ? 3.18e-05

src = the supplement of paper PMC7125110
